All values here come from ChEMBL document CHEMBL1135313.

- targetOfAssay: Mycothiol S-conjugate amidase (Mycobacterium tuberculosis)
- Sequence (P9WJN1 whole entry): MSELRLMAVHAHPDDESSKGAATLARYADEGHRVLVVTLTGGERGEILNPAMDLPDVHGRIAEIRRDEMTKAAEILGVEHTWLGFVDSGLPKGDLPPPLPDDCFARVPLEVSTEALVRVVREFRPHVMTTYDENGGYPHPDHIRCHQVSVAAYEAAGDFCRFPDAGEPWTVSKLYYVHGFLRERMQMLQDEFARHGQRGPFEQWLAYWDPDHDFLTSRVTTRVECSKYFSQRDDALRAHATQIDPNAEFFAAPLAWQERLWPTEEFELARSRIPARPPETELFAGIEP
observationType: pIC50
Please express pIC50 as -log10 of the molar concentration.

# return pIC50 for Nc1ccc(SSCCNC(=O)/C(Cc2cc(F)cc(F)c2)=N\O)cc1 , test system: Mycothiol S-conjugate amidase (Mycobacterium tuberculosis)
3.35

Report pIC50 on Mycothiol S-conjugate amidase (Mycobacterium tuberculosis) for this entry: O=C(NCCSSc1ccc(F)cc1)/C(Cc1cccc(Br)c1)=N\O
4.05

Look up Mycothiol S-conjugate amidase (Mycobacterium tuberculosis) data: pIC50 of Nc1ccc(SSCCNC(=O)/C(Cc2ccc(O)c(Cl)c2)=N\O)cc1 , then report it.
4.46

Specify the recorded pIC50 for Nc1ccc(SSCCNC(=O)/C(Cc2cccc(Br)c2)=N\O)cc1 , system: Mycothiol S-conjugate amidase (Mycobacterium tuberculosis).
3.73
